target: HIV-1 Env of MB201 (HIV-1); assay: cell-based or functional assay
VALUE TYPE: neutralization IC50

Endpoint output: neutralization IC50 of CAP256-VRC26.12 (antibody, V domains shown) VH: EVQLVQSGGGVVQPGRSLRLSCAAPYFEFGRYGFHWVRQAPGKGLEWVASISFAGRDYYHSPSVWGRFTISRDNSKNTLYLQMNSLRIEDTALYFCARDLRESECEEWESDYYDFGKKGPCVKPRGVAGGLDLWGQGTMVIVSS VL: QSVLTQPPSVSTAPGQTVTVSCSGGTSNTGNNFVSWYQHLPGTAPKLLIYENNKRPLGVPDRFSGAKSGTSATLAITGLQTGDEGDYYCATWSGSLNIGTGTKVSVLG . Value?
> 50 µg/mL

Quick one: CAP256-VRC26.09 (antibody, V domains shown) VH: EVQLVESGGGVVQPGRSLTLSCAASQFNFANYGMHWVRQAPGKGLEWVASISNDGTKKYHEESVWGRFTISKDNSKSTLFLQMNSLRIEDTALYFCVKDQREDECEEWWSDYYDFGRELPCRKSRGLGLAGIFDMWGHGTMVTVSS VL: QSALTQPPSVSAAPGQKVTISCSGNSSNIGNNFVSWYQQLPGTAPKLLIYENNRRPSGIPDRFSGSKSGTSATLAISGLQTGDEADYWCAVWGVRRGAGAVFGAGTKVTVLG
> 50 µg/mL

Query CAP256-VRC26.03 (antibody, V domains shown) VH: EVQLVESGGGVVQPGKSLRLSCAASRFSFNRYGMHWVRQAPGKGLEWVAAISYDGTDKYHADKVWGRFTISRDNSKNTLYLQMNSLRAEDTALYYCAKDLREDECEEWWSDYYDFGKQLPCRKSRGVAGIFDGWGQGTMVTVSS VL: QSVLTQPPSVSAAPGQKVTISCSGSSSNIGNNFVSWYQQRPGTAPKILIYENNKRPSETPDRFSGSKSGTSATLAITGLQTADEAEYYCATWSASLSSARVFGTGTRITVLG next
> 50 µg/mL

The measurements presented in this section are drawn from patent US20200199204A1.
